Substrate: PET
Experiment summary: Proxy for plastic degradation [Weight/mass loss]
Condition context: pH 8; 55 °C
Readout: Proxy for plastic degradation (%)
Respond with the bare value in %.

// worked examples, Proxy for plastic degradation included
Protein | Experimental value
unnamed (protein) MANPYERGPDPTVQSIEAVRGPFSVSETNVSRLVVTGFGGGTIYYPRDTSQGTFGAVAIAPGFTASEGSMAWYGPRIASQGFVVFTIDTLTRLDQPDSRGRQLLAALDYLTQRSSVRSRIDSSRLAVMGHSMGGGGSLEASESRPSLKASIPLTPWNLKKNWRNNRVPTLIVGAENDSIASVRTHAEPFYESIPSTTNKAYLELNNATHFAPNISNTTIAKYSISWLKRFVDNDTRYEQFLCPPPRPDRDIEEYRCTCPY | 1
unnamed (protein) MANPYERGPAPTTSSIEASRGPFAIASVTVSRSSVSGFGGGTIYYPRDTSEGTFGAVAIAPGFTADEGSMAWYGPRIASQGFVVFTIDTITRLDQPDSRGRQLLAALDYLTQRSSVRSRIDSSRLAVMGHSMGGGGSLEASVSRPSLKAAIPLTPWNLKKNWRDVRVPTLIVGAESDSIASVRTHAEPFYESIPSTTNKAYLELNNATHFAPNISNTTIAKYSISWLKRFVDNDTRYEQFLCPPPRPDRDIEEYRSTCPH | 1
unnamed (protein) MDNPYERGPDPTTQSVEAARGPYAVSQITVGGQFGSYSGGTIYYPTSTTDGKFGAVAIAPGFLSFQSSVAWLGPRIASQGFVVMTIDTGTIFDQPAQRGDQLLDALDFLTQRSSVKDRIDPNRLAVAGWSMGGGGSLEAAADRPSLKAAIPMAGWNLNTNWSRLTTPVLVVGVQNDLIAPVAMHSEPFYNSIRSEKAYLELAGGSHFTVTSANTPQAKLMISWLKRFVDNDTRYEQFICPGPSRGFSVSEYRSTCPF | 5
unnamed (protein) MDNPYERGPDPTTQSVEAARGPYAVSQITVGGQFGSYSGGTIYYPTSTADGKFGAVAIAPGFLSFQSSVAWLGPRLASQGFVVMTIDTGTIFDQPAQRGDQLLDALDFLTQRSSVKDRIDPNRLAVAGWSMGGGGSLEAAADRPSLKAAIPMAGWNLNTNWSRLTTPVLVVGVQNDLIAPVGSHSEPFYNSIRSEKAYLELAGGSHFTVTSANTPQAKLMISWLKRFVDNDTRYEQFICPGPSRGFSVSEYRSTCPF | 1
unnamed (protein) MANPYERGPNPTDALLEARSGPFSVSEENVSRLSASGFGGGTIYYPRENNTYGAVAISPGYTGTEASIAWLGERIASHGFVVITIDTITTLDQPDSRAEQLNAALNHMINRASSTVRSRIDSSRLAVMGHSMGGGGSLRLASQRPDLKAAIPLTPWHLNKNWSSVRVPTLIIGADLDTIAPVLTHARPFYNSLPTSISKAYLELDGATHFAPNIPNKIIGKYSVAWLKRFVDNDTRYTQFLCPGPRDGLFGEVEEYRSTCPF | 1

Field: next protein
Exam item: Tell me its Proxy for plastic degradation given unnamed (protein) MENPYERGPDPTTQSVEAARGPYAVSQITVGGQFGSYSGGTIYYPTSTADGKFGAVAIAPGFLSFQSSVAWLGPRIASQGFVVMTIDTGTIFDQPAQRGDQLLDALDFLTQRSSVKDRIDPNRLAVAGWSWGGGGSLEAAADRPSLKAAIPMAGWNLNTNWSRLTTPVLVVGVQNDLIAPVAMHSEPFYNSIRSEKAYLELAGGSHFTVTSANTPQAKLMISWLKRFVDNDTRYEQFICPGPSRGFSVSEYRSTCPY as the entry.
Marked response: 0.5
